# Test system: Enterococcus faecalis CL5244, VanB
# Procedure Summary: MIC susceptibility test
# Format: cell-based
# Particulars: Enterococcus faecalis CL5244, VanB; read-out: MIC CL5244
Measured Parameter: MIC (µg/mL)
All answers are understood in µg/mL, so give the number only.

Data request: What MIC value was documented for this compound, CN[C@@H](CC(C)C)C(=O)N[C@H]1C(=O)N[C@@H](CC(N)=O)C(=O)N[C@H]2C(=O)NC3C(=O)N[C@H](C(=O)N[C@@H](C(=O)O)c4cc(O)cc(O)c4-c4cc3ccc4O)[C@H](O)c3ccc(c(Cl)c3)Oc3cc2cc(c3OC2OC(CN=[N+]=[N-])C(O)C(O)C2OC2CC(C)(NCc3ccc(-c4ccc(Cl)cc4)cc3)C(O)C(C)O2)Oc2ccc(cc2Cl)[C@H]1O (some centres unmarked) ?
Data returned: 0.3

Data request: Repeat with CN[C@@H](CC(C)C)C(=O)N[C@H]1C(=O)N[C@@H](CC(N)=O)C(=O)N[C@H]2C(=O)NC3C(=O)N[C@H](C(=O)N[C@@H](C(=O)O)c4cc(O)cc(O)c4-c4cc3ccc4O)[C@H](O)c3ccc(c(Cl)c3)Oc3cc2cc(c3OC2OC(CNC(=O)C(F)(F)F)C(O)C(O)C2OC2CC(C)(N)C(O)C(C)O2)Oc2ccc(cc2Cl)[C@H]1O (some centres unmarked) [XL, Glucose-C6-trifluoroacetamide Vancomycin]
Data returned: 25

* * *

# System: Enterococcus faecalis (ATCC 29212)
# Procedure Summary: MIC susceptibility test, microdilution with MTT readout
# Format: cell-based
# Particulars: Enterococcus faecalis ATCC29212; read-out: MIC EF
Below, each entry is listed with its recorded MIC.
All answers are understood in µg/mL, so give the number only.

# example entries with known answers
# Compound, MIC, µg/mL
rows = [
    ("CN[C@@H](CC(C)C)C(=O)N[C@H]1C(=O)N[C@@H](CC(N)=O)C(=O)N[C@H]2C(=O)NC3C(=O)N[C@H](C(=O)N[C@@H](C(=O)O)c4cc(O)cc(O)c4-c4cc3ccc4O)[C@H](O)c3ccc(c(Cl)c3)Oc3cc2cc(c3OC2OC(CN=[N+]=[N-])C(O)C(O)C2OC2CC(C)(NCc3ccc(-c4ccc(Cl)cc4)cc3)C(O)C(C)O2)Oc2ccc(cc2Cl)[C@H]1O (stereo partly drawn)", 0.16),
    ("CN[C@@H](CC(C)C)C(=O)N[C@H]1C(=O)N[C@@H](CC(N)=O)C(=O)N[C@H]2C(=O)NC3C(=O)N[C@H](C(=O)N[C@@H](C(=O)O)c4cc(O)cc(O)c4-c4cc3ccc4O)[C@H](O)c3ccc(c(Cl)c3)Oc3cc2cc(c3OC2OC(CSc3nccc(N)n3)C(O)C(O)C2OC2CC(C)(N)C(O)C(C)O2)Oc2ccc(cc2Cl)[C@H]1O (stereo partly drawn)", 0.63),
]

Data request: What MIC value was documented for this compound, CN[C@@H](CC(C)C)C(=O)N[C@H]1C(=O)N[C@@H](CC(N)=O)C(=O)N[C@H]2C(=O)NC3C(=O)N[C@H](C(=O)N[C@@H](C(=O)O)c4cc(O)cc(O)c4-c4cc3ccc4O)[C@H](O)c3ccc(c(Cl)c3)Oc3cc2cc(c3OC2OC(CSc3nc(N)cc(N)n3)C(O)C(O)C2OC2CC(C)(N)C(O)C(C)O2)Oc2ccc(cc2Cl)[C@H]1O (stereo partly drawn) ?
Data returned: 1.3

Taken from patent US6710168B1.
